compounds and their reported fluorescence slope
# assay_system: Voltage-gated potassium channel subunit beta-2 (Rattus norvegicus) (UniProt P62483)
# Sequence (P62483 whole entry, looked up): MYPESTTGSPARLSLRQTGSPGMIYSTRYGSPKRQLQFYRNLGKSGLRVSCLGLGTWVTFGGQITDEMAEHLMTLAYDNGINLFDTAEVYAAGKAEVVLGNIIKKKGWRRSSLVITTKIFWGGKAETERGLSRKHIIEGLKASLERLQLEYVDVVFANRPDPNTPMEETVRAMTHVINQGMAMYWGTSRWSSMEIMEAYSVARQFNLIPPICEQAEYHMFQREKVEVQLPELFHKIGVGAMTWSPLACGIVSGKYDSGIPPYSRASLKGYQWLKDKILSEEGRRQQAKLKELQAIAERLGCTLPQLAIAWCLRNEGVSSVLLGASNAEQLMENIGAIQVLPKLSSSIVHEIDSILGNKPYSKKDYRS
# experiment_summary: KvBeta enzyme negative modulators, primary screen, biochemical, NADPH fluorescence (AID 622);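 further: slope of raw intensity against log time taken from 70 to 1610 s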
# conditions: recombinant KvBeta, 4-cyanobenzaldehyde reduction, at 10 µM, stronger effect = higher value
Hey, just send me the number, nothing else.

Past entries and their recorded results:
Q: Fill in: fluorescence slope of O=C(Cc1cscn1)c1ccc(O)cc1O is ___
Ans: -0.544

Q: Fill in: fluorescence slope of COc1ccc(/C=C(/C#N)c2cccnc2)cc1OC is ___
Ans: -0.499

Q: Fill in: fluorescence slope of CC1(C)CC(=O)C2=C(C1)N(CC1CCCO1)C(=O)C2(O)C(F)(F)F (configuration not stated) is ___
Ans: -0.492

Q: Fill in: fluorescence slope of Cn1c(NCC(O)c2ccccc2)nc2c1c(=O)n(Cc1ccc(Cl)c(Cl)c1)c(=O)n2C (configuration not stated) is ___
Ans: -0.518

Q: Fill in: fluorescence slope of CN1CCN(c2nc(C(N)=O)cc(-c3ccccc3)n2)CC1 is ___
Ans: -0.498

Q: Fill in: fluorescence slope of COCCN(C(=O)Nc1ccccc1)c1ccccc1C is ___
Ans: -0.32

Then there is this compound:
Q: Fill in: fluorescence slope of COc1ccc(C(=O)Nc2nc(N)n(-c3ccccc3)n2)cc1OC is ___
Ans: -0.426

The reported measurements were obtained from PubChem BioAssay.
